Assign GI50 to each entry below.
Tested on: SNB-78
Run description: NCI tumour cell line growth inhibition, 48 h
Activity calls are given as the source filed them. Cut-off read from the data, not from the text of the source: active = GI50 up to about 1.1 µM and inactive = higher.

Answer with GI50 of "c1ccc(SCCCC(Sc2ccccc2)Sc2ccccc2)cc1" measured for SNB-78.
> 100 µM (inactive)

Would you please give the reported GI50 of COc1ccc(C2C(Cl)C(=O)N2NC(=O)Cc2ccccc2)cc1OC (configuration not stated) with SNB-78?
> 100 µM (inactive)

Tell me its GI50 on SNB-78: CC(C)C(Sc1nc(-c2ccccc2)c(-c2ccccc2)[nH]1)C(=O)N/N=C/c1ccc(Cl)cc1 (configuration not stated)
28.7 µM (inactive)

Provide the reported GI50 (system: SNB-78) for "CC(=O)N(CCN)CCN"
> 10 µM (inactive)

Give GI50; test system SNB-78; compound "CN1CN(C(=O)N2CN(C)C(=O)N(C)C2)CN(C)C1=O"
> 100 µM (inactive)

Identify measured GI50 obtained with SNB-78 for "CSc1n[n+]2c(s1)SCCC2" .
> 100 µM (inactive)

Lab note: record GI50 of "Cc1ccc(S(=O)(=O)NC(=O)NC23CC4CC(CC(F)(C4)C2)C3)cc1" tested on SNB-78.
> 100 µM (inactive)

Fill: GI50 (SNB-78) for this compound "C/C(CN1C(=O)c2ccccc2C1=O)=N\NS(=O)(=O)c1ccc(Br)cc1"
> 100 µM (inactive)

State measured GI50 of the compound "CC1(C)CC2(CC(C)(C)N1O)NC(=O)OC2=O" with SNB-78.
> 100 µM (inactive)

Please indicate recorded GI50 of "c1ccc(-c2ccnc3c2ccc2c(-c4ccccc4)ccnc23)cc1" measured with SNB-78.
5.05 µM (inactive)

Name the recorded GI50 of COc1cc(CC2c3cc(OC)c(OC)cc3CCN2C)ccc1O (configuration not stated) , assay system SNB-78.
> 100 µM (inactive)

Find GI50 for "C#CCOCn1cnc2c(N)ncnc21" on SNB-78 and write it down.
> 100 µM (inactive)

* * *

System: Malme-3M
Run description: NCI tumour cell line growth inhibition, 48 h
Activity calls are given as the source filed them. Cut-off read from the data, not from the text of the source: active = GI50 up to about 1.1 µM and inactive = higher.
// allowed return values: y (active), n (inactive)

// return assay outcome for "CC(C)=C1C(=O)c2c(Cl)sc(Cl)c2C1=O"
n

Identify the outcome logged in this assay for the molecule shown: CC1(C)C[C@@H]2C1CCC1(C)CC2(O)CC[C@H]1O (some centres not stated)
n

Test call, this molecule: "Cn1c(=O)c2nc(SCc3ccccn3)[nH]c2n(C)c1=S"
n

How was O=C1CCC2(c3ccc(Cl)cc3)Nc3ccccc3N12 (configuration not stated) classified in this test?
n

Which outcome did this test record for the molecule "[O-][n+]1c(CN2CCCCC2)nc2cccc3c2c1-c1ccccc1-3" ?
n

Identify the outcome logged in this assay for the molecule shown: "CCOc1cc(/C=C/C=C/c2ccc(N(C)C)cc2)[s+]c2ccccc12"
n

Please let me know the test result on file for "C[n+]1c(/C=C/c2ccc(/C=N/NC(=O)c3ccc(C(=O)N/N=C/c4ccc(/C=C/c5cn6ccccc6[n+]5C)cc4)cc3)cc2)cn2ccccc21" .
n

Can you look up the reported call for "COc1ccc(Cn2c3c(cc(OS(=O)(=O)C(F)(F)F)c2=O)Cc2ccccc2-3)cc1" for me?
n

Recorded test outcome, item C=C(C)C1Cc2c(cc(OC)c3c(=O)c4ccccc4n(C)c23)O1 (configuration not stated)
n

Please share the test call associated with "c1cc(NNc2cccc(-c3nnn[nH]3)c2)cc(-c2nnn[nH]2)c1" .
n

Hey, what did the test say about "CCOC(=O)C(Cc1ccc2c(c1)CCC2)(Cc1ccc2c(c1)CCC2)C(=O)OCC" ?
n

So what was the verdict on O=NN(Cc1ccc(Cl)cc1)C(C(=O)O)c1ccccc1 (configuration not stated) in this test?
n

GET /call?item= OCC1OC(NC(=S)NCSCCC(F)(F)C(F)(F)C(F)(F)C(F)(F)C(F)(F)C(F)(F)F)C(O)C(O)C1O (configuration not stated) returns the recorded outcome of this test.
n

I would be grateful if you could indicate the recorded call for CC1=C(Cl)C=CP(=O)(OC(C)C)C1 (configuration not stated) .
n

What did this assay record as the result for "Cc1ccnc2[nH]c(-c3ccccc3)cc(=O)c12" ?
y

Dear colleague, could you share the recorded outcome for O=C(O)CC(C(=O)O)C1c2ccccc2-c2ccccc21 (configuration not stated) when you have a moment?
n

Recorded test outcome, item "CN(c1ccccc1)S(=O)(=O)c1ccc([N+](=O)[O-])cc1"
n

Per the records of this test, what outcome belongs to "CCOC(=O)c1cnc(N(C)C)nc1SC(=N)N" ?
n

Field: outcome | Entry: "C[Si](C)(C)C#CCOC=C1CC1"
n

Called result for "Cc1cc(N(CCC#N)CCC#N)ccc1C(/N=N/c1ccc([N+](=O)[O-])cc1)=N\NC(=O)c1ccccc1"
n

Status in this test for "O=C(/C=C/c1ccccc1)C[C@@H](O)C[C@@H]1CC=CC(=O)O1" ?
n

Give the logged outcome of this assay for the following molecule: "NC1=C(N2CCCCC2)C(=O)NC2=N/C(=C\c3ccco3)C(=O)N21"
n
